# Tested on: Escherichia coli TOP10;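 also: peptides expressed intracellularly from a pBAD plasmid library in pooled LB shake-flask culture, induced with 0.3% L-arabinose, DNA abundance read by NGS, three biological replicates, DESeq2 with apeglm shrinkage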
# assay: shrunken log2 fold change of peptide-encoding DNA abundance (4.5 h post-induction vs induction); higher = less antimicrobial activity (less host growth inhibition)
# experimental_context: time post-induction: 4.5 h; library: site-saturation at positions 5, 18, 19, 20
Recorded shrunken log2 fold change values for a group of sequences are listed next.
// no unit string in output, number only

{"columns": ["chain", "shrunken log2 fold change"],
 "data": [
  ["RRIRPRPPRLPRPRPRPWEDPRP", 0.00408],
  ["RRIRRRPPRLPRPRPRPYRCPRP", -1.3],
  ["RRIRGRPPRLPRPRPRPEQPPRP", 1.68],
  ["RRIRLRPPRLPRPRPRPRIWPRP", 0.394],
  ["RRIRPRPPRLPRPRPRPLPGPRP", 0.02],
  ["RRIRLRPPRLPRPRPRPIAEPRP", 0.591]
]}

Next sequence, shrunken log2 fold change to be filled in.
stdin: For the sequence shown here, RRIRARPPRLPRPRPRPNDSPRP , give the reported shrunken log2 fold change.
stdout: -0.225
